tested on: PA-1; assay: Primary qHTS to identify gynecologic anti-cancer compounds using libraries of approved drugs and bioactive compounds (AID 1345084); conditions: Gynecologic cancer cell panel viability, ATPlite luminescence, 48 h; series mostly up to 57.5 µM; note: nearly all actives have a fitted effect of over 55% in size
Records with an inconclusive call do not appear. Activity calls are given as the source filed them. Calls come from the whole dose curve; as a rule, active = well fitted cell-killing curve with a large enough effect; inconclusive = small, poorly fitted or top-dose-only effect, or effect the other way; inactive = flat fitted curve, though single readings scatter.
experimental.readout: outcome

molecule: COc1ccc(OC)c(CC(C)N)c1 (stereo not drawn)
result: inactive
//
molecule: CC(C)NCC(O)c1ccc(N)c(C#N)c1 (stereo not drawn)
result: inactive
//
molecule: Clc1ccc(CSC(Cn2ccnc2)c2ccc(Cl)cc2Cl)cc1 (stereo not drawn)
result: inactive
//
molecule: Cc1ncc2n1-c1ccc(Cl)cc1C(c1ccccc1F)=NC2
result: inactive
//
molecule: CC1COC2(c3ccccc3Cl)c3cc(Cl)ccc3NC(=O)CN12 (stereo not drawn)
result: inactive
//
molecule: CCOC(=O)c1cncn1C(C)c1ccccc1 (stereo not drawn)
result: inactive
//
molecule: Cc1cccc(Cc2cnc[nH]2)c1C
result: inactive
//
molecule: COc1cc(CC(C)N)cc2c1OCO2 (stereo not drawn)
result: inactive
//
molecule: CCC1(c2cccc(O)c2)CCCCN(C)C1 (stereo not drawn)
result: inactive
//
molecule: CCCC[N+]1(C)[C@@H]2CC(OC(=O)[C@H](CO)c3ccccc3)C[C@H]1[C@@H]1O[C@@H]12 (stereo partly drawn)
result: inactive
//
molecule: O=C(CCCN1CCC(n2c(=O)[nH]c3ccccc32)CC1)c1ccc(F)cc1
result: inactive
//
molecule: COc1cc(C[C@@H](C)N)c(OC)cc1C
result: inactive
//
molecule: C[C@@H]1CC[C@H]2[C@@H](C)C(=O)O[C@@H]3O[C@@]4(C)CC[C@@H]1[C@]32OO4
result: inactive
//
molecule: O=c1[nH]c2cc(Cl)ccc2n1C1CCNCC1
result: inactive
//
molecule: CC(C)(C)OC(=O)c1ncn2c1[C@@H]1CCCN1C(=O)c1c(Br)cccc1-2
result: inactive
//
molecule: CC(C)(O)C(Cl)(Cl)Cl
result: inactive
//
molecule: CC(CC(C(N)=O)(c1ccccc1)c1ccccc1)N(C)C (stereo not drawn)
result: inactive
//
molecule: CC1N=C(N)OC1c1ccccc1 (stereo not drawn)
result: inactive
//
molecule: Nc1ccc(N)cc1
result: inactive
//
molecule: CCS(=O)(=O)C(C)(C)S(=O)(=O)CC
result: inactive
//
molecule: CCCCC1C(=O)NC(=O)N(C2CCCCC2)C1=O (stereo not drawn)
result: inactive
//
molecule: NCc1cccnc1
result: inactive
//
molecule: CC(C)C(Br)C(=O)NC(N)=O (stereo not drawn)
result: inactive
//
molecule: CCOC(=O)C(c1c(O)c2ccccc2oc1=O)c1c(O)c2ccccc2oc1=O
result: inactive
//
molecule: CN1C(=O)CN=C(c2ccccc2)c2cc([N+](=O)[O-])ccc21
result: inactive
//
molecule: O=C(O)Cc1ccccc1
result: inactive
//
molecule: CC[C@H](O)C(C[C@H](C)N(C)C)(c1ccccc1)c1ccccc1
result: inactive
//
molecule: CCc1ccc(C2CCNCC2)cc1
result: inactive
//
molecule: CN1CCC(N(Cc2ccccc2)c2ccccc2)CC1
result: inactive
//
molecule: CC(Cc1ccccc1)NCCCCl (stereo not drawn)
result: inactive
//
molecule: CN1C(=O)CN=C(c2ccccc2)c2cc(Cl)ccc21
result: inactive
//
molecule: CN1C(=O)[C@@H](NC(=O)c2cc3ccccc3[nH]2)N=C(c2ccccc2)c2ccccc21
result: inactive
//
molecule: CC(=O)OC1(c2ccccc2)CCN(CCc2ccccc2)CC1
result: inactive

====

settings: Ebola virus entry assay, reporter ratio channel; Channel type: primary
The source made the active and inactive calls.
Outcomes: 1 = active, -1 = inactive

compound: O=C(CS)Nc1ccccc1
label.value: 1

compound: CN(C)C(=O)CNC(=O)Cc1ccccc1
label.value: -1

compound: C[C@]12CC[C@@H]3c4ccc(O)cc4CC[C@H]3[C@@H]1CCC2=O
label.value: 1

compound: NC(=O)CCCCC1CCSS1 (configuration not stated)
label.value: -1

compound: CSc1ccc2c(c1)C(N1CCN(C)CC1)Cc1ccccc1S2 (configuration not stated)
label.value: 1

compound: CCCOC(=O)Cc1ccc(OCC(=O)N(CC)CC)c(OC)c1
label.value: -1

compound: CC(COc1ccccc1)NC(C)C(O)c1ccc(O)cc1 (configuration not stated)
label.value: -1

compound: CN1CCN(c2cc3c(nn2)Oc2ccccc2N3C)CC1
label.value: -1

compound: C[C@]12C=CC(=O)C=C1CC[C@H]1[C@@H]3C[C@@H](O)[C@](O)(C(=O)CO)[C@@]3(C)C[C@H](O)[C@@]12F
label.value: -1

compound: CCCc1ncc(C[n+]2ccccc2C)c(N)n1
label.value: -1

compound: Cc1nc2ccccc2c(=O)n1-c1ccccc1Cl
label.value: 1

compound: OC[C@H]1O[C@@H](O[C@@H]2[C@@H](CO)O[C@](O)(CO)[C@H]2O)[C@H](O)[C@@H](O)[C@H]1O
label.value: -1

compound: CCOC(=O)C1=C[C@]2(CC)CCCN3CCc4c(n1c1ccccc41)[C@@H]32
label.value: 1

compound: C[n+]1cc2c3c(ccc2c2ccc4cc5c(cc4c21)OCO5)OCO3
label.value: 1

compound: CN(C)CCOc1ccccc1Cc1ccccc1
label.value: 1

compound: CC(=O)Oc1c(C)c(C)c2c(c1C)CC[C@@](C)(CCC[C@H](C)CCC[C@H](C)CCCC(C)C)O2
label.value: -1

compound: O=c1[nH]c(=O)n([C@H]2C[C@H](O)[C@@H](CO)O2)cc1C(F)(F)F
label.value: -1

compound: CCCC(C)C1(CC)C(=O)N=C(S)NC1=O (configuration not stated)
label.value: -1

compound: CN1C(=O)CN=C(c2ccccc2)c2cc([N+](=O)[O-])ccc21
label.value: -1

compound: C[C@]12CC[C@H]3[C@@H](CC=C4C[C@@H](O)CC[C@@]43C)[C@@H]1CC[C@@H]2O
label.value: -1

compound: Nc1c2c(nc3ccccc13)CCCC2
label.value: 1

compound: CCN(CC)C(=O)N1CCN(C)CC1
label.value: -1

compound: Nc1ccn(C2CO[C@H](CO)O2)c(=O)n1 (some centres not stated)
label.value: -1

compound: CCCCCCCCCCCCOCCOCCOCCOCCOCCOCCOCCOCCOCCO
label.value: -1

compound: CCN(CC)C(=O)C1CN2CCc3cc(OC)c(OC)cc3C2CC1OC(C)=O (configuration not stated)
label.value: -1

compound: c1ccc([C@H]2CN3CCSC3=N2)cc1
label.value: -1

compound: OC[C@H]1O[C@@H](OCCc2ccc(O)cc2)[C@H](O)[C@@H](O)[C@H]1O
label.value: -1

compound: CCCc1nc(C)c2c(=O)[nH]c(-c3cc(S(=O)(=O)N4CCN(CC)CC4)ccc3OCC)nn12
label.value: -1

compound: CCN(CC)CCNC(=O)c1cc(Br)c(N)cc1OC
label.value: -1

compound: O=C(O)c1cn(C2CC2)c2cc(Cl)c(F)cc2c1=O
label.value: -1

compound: Cn1c(=O)c2c(ncn2CC2OCCO2)n(C)c1=O
label.value: -1

compound: Oc1cc(O)c2c(c1)O[C@H](c1ccc(O)c(O)c1)[C@H](O)C2
label.value: -1

compound: CCn1c(=O)c2c(nc(C=Cc3ccc(OC)c(OC)c3)n2C)n(CC)c1=O
label.value: -1

compound: Cc1cccc(C)c1NC(=O)C(C)N (configuration not stated)
label.value: -1

compound: Nc1c2ccccc2nc2ccccc12
label.value: -1

compound: CCCCCCCC/C=C\CCCCCCCCN
label.value: -1

compound: CN1[C@@H]2CC[C@H]1CC(OC(=O)c1cc(Cl)cc(Cl)c1)C2 (some centres not stated)
label.value: 1

====

system: DIV14; test: qHTS profiling for inhibitors of Plasmodium falciparum proliferation (AID 504749); note: nearly all actives have a fitted effect of over 60% in size; settings: P. falciparum in erythrocytes, SYBR Green DNA, 72 h; series mostly up to 28.7 µM
Results filed as inconclusive are left out. Calls of active or inactive are those of the source. The call rests on the fitted dose curve; in most records, active means well fitted inhibition curve with a large enough effect; inconclusive means small, poorly fitted or top-dose-only effect; inactive means flat fitted curve, though single readings scatter.
Outcomes: active, inactive

compound: ClC1=C(Cl)C2(Cl)C(CBr)CC1(Cl)C2(Cl)Cl (configuration not stated)
system.tested: DIV14
label.value: inactive

compound: Clc1ccc(CO/N=C(\Cn2ccnc2)c2ccc(Cl)cc2Cl)c(Cl)c1
system.tested: DIV14
label.value: active

compound: O=c1n(Cl)c(=O)n(Cl)c(=O)n1Cl
system.tested: DIV14
label.value: inactive

compound: CCC1(CC)C(=O)NC(=O)NC1=O
system.tested: DIV14
label.value: inactive

compound: C#C[C@]1(O)CC[C@H]2[C@@H]3CCC4=CC(=O)CCC4=C3C=C[C@@]21CC
system.tested: DIV14
label.value: active

compound: C=CCOC(Cn1ccnc1)c1ccc(Cl)cc1Cl (configuration not stated)
system.tested: DIV14
label.value: active

compound: O=C(CCCN1CCC(n2c(=O)[nH]c3ccccc32)CC1)c1ccc(F)cc1
system.tested: DIV14
label.value: active

compound: Oc1ccc2[nH]cc(CCCCN3CC=C(c4ccccc4)CC3)c2c1
system.tested: DIV14
label.value: active

compound: COCC(=O)N(c1c(C)cccc1C)C(C)C(=O)OC (configuration not stated)
system.tested: DIV14
label.value: inactive

compound: c1ccc2nc(N3CCNCC3)ccc2c1
system.tested: DIV14
label.value: inactive

compound: COc1ccc(C(=O)N2CCCC2=O)cc1
system.tested: DIV14
label.value: inactive

compound: COC(=O)C1=CCCN(C)C1
system.tested: DIV14
label.value: inactive

compound: O=C1NCN(c2ccccc2)C12CCN(CCCOc1ccc(F)cc1)CC2
system.tested: DIV14
label.value: active

compound: CN1C(=O)[C@@H](NC(=O)c2cc3ccccc3[nH]2)N=C(c2ccccc2)c2ccccc21
system.tested: DIV14
label.value: active

compound: CC(C)(C)OC(=O)c1ncn2c1[C@@H]1CCCN1C(=O)c1c(Br)cccc1-2
system.tested: DIV14
label.value: inactive

compound: Cc1ccc(N=CN(C)C=Nc2ccc(C)cc2C)c(C)c1
system.tested: DIV14
label.value: inactive

compound: CCN(CC)C(C)C(=O)c1ccccc1 (configuration not stated)
system.tested: DIV14
label.value: inactive
